Experiment: yeast display, Sf9 membrane polyspecificity reagent, FACS + sequencing; frameworks hold sequencing errors
Readout: polyreactivity (PSR sort gate)

Here are 4 sequences together with their reported answers.
residue_sequence=QVQLVESGGGLDQAGGSLRLSCAASGGTFDTYAMGWYRQAPGKERELVAGIDWSGGSTYYADSVKGRFTISRDNAKNTVYLQMNSLKPEDTAVYYCAADYYYPSQMDYWGQGTQVTVSS value_reported="low polyreactivity"
residue_sequence=QVQLVESGGGLVQAGGSLRLSCAASGTIIVWNAMGRYRQARGKERELVASITSGASTNYADSVKGRFTISRDNAKNTVYLQMNSLKPEDTAVYYCNAGPRRTISRSRLRSAPKYDYWGQGTQVTVSS value_reported="low polyreactivity"
residue_sequence=QVQLVESGGGLVQAGGSLRLSCAASGRIIKLYAMGWYRQAPGKEREFVAAITWSGGRTYYADSVKGRFTISRDNAKNTVYLQMNSLKPEDTAVYYCAAYDTYDWYDYWGQGTQVTVSS value_reported="high polyreactivity"
residue_sequence=QVQLVESGGGIVQAGGSLRLSCAASGYSFFINAMGWSRQAPGKERELVAAIDLRGGSTYYADSVKGRFTISRDNAKNTVYLQMNSLKPEDTAVYYCNARARRYGGRYYYWGQGTQVTVSS value_reported="high polyreactivity"

# next sequence below
// query Given QVQLVESGGGLVQAGGSLRVSCAASGSTFGGNAMGWYRQAPGKERELSTYYADSVKGRFTISRDNAKNTVYLQMNSLKPEDTAVYYCNTENFYGSDIFDSWGQGTQVTVSS , state its recorded polyreactivity (PSR sort gate).
// result low polyreactivity
